IC50 reference
Test system: Hep3B human hepatocellular carcinoma cells
Assay: Hypoxia targeting assay, 5-h exposure then 5 days growth, MTS
Format: cell-based
Conditions: Homo sapiens, hypoxic (1.0% O2), then 5 days normoxic growth, read-out: IC50 Hypoxic (H)

Notebook: COc1ccc(C[C@H](C)[C@H](C)Cc2ccc(OCCOCCOCCOCCn3ccnc3[N+](=O)[O-])c(OC)c2)cc1OC (racemic) [Compound 10d] , IC50 read as 49.1 µM

Notebook: COc1ccc(C[C@H](C)[C@H](C)Cc2ccc(OC)c(OCCOCCOCCOCCn3ccnc3[N+](=O)[O-])c2)cc1OC (racemic) [Compound 7d] , IC50 read as 53.2 µM

Notebook: COc1ccc(C[C@H](C)[C@H](C)Cc2ccc(OC)c(OCCOCCOCCOCCn3cnc([N+](=O)[O-])c3)c2)cc1OC (racemic) [Compound 7c] , IC50 read as 64.3 µM

Notebook: COc1ccc(C[C@H](C)[C@H](C)Cc2ccc(OCCOCCOCCOCCn3cnc([N+](=O)[O-])c3)c(OC)c2)cc1OC (racemic) [Compound 10c] , IC50 read as 52.1 µM

###

Experiment: Determination of water solubility by UV absorbance of a saturated solution
Format: physicochemical
Conditions: thermodynamic from solid; water, saturated solution, sonicated at 25° C., stirred at room temperature 1.0 h, filtered
ENDPOINT: solubility at 1 h (µg/mL)
Enter your answer as a number in µg/mL; do not include the unit.

MOLECULE	UNIT_ABBREVIATION	solubility at 1 h
COc1ccc(C[C@H](C)[C@H](C)Cc2ccc(OC)c(OCCOCCOCCOCCn3ccnc3[N+](=O)[O-])c2)cc1OC (racemic)	µg/mL	13.2
COc1ccc(C[C@H](C)[C@H](C)Cc2ccc(OC)c(OCCOCCOCCOCCn3cnc([N+](=O)[O-])c3)c2)cc1OC (racemic)	µg/mL	18.5
COc1ccc(C[C@H](C)[C@H](C)Cc2ccc(OCCOCCOCCOCCn3ccnc3[N+](=O)[O-])c(OC)c2)cc1OC (racemic) [Compound 10d]	µg/mL	19.1
COc1ccc(C[C@H](C)[C@H](C)Cc2ccc(OCCn3ccnc3[N+](=O)[O-])c(OC)c2)cc1OC (racemic) [Compound 10b]	µg/mL	1.7
COc1ccc(C[C@H](C)[C@H](C)Cc2ccc(OCCn3cnc([N+](=O)[O-])c3)c(OC)c2)cc1OC (racemic) [Compound 10a]	µg/mL	1.63

Notebook: COc1ccc(C[C@H](C)[C@H](C)Cc2ccc(OC)c(OCCn3cnc([N+](=O)[O-])c3)c2)cc1OC (racemic) , solubility at 1 h read as 1.76

Notebook: COc1ccc(C[C@H](C)[C@H](C)Cc2ccc(OCCOCCOCCOCCn3cnc([N+](=O)[O-])c3)c(OC)c2)cc1OC (racemic) [Compound 10c] , solubility at 1 h read as 10.5

Notebook: COc1ccc(C[C@H](C)[C@H](C)Cc2ccc(OC)c(OCCn3ccnc3[N+](=O)[O-])c2)cc1OC (racemic) , solubility at 1 h read as 1.64

###

Test system: Hep3B human hepatocellular carcinoma cells
Experiment: Hypoxia targeting assay, 5-h exposure then 5 days growth, MTS
Format: cell-based
Conditions: normoxic versus hypoxic
Rule: Ratio IC50 (N)/IC50 (H) below 2 gives rule met, anything at or above gives rule not met.

Example entries and their recorded answers appear below.
COMPOUND	QUALITATIVE_LABEL
COc1ccc(C[C@H](C)[C@H](C)Cc2ccc(OCCOCCOCCOCCn3cnc([N+](=O)[O-])c3)c(OC)c2)cc1OC (racemic) [Compound 10c]	rule not met
COc1ccc(C[C@H](C)[C@H](C)Cc2ccc(OC)c(OCCOCCOCCOCCn3ccnc3[N+](=O)[O-])c2)cc1OC (racemic) [Compound 7d]	rule met
COc1ccc(CC(C)C(C)Cc2ccc(OC)c(OC)c2)cc1O (stereo not drawn) [Compound 3, trimethyl NDGA, reference compound]	rule met

Task item: Hello, is Ratio IC50 (N)/IC50 (H) of the following compound strictly smaller than 2? COc1ccc(CC(C)C(C)Cc2ccc(OC)c(OC)c2)cc1O (stereo not drawn) [Compound 8, trimethyl NDGA, reference compound]
Reply: rule met

Task item: Hello, is Ratio IC50 (N)/IC50 (H) of the following compound strictly smaller than 2? COc1ccc(C[C@H](C)[C@H](C)Cc2ccc(OCCOCCOCCOCCn3ccnc3[N+](=O)[O-])c(OC)c2)cc1OC (racemic) [Compound 10d]
Reply: rule not met

Task item: Hello, is Ratio IC50 (N)/IC50 (H) of the following compound strictly smaller than 2? COc1ccc(C[C@H](C)[C@H](C)Cc2ccc(OC)c(OCCOCCOCCOCCn3cnc([N+](=O)[O-])c3)c2)cc1OC (racemic) [Compound 7c]
Reply: rule met

###

System: HT29 human colorectal carcinoma cells
Test: MTT cell viability assay, 3 days
Format: cell-based
Conditions: Homo sapiens, HT-29, 72 h, normoxic conditions, 1% DMSO
ENDPOINT: IC50

Notebook: COc1ccc(C[C@H](C)[C@H](C)Cc2ccc(OC)c(OCCOCCOCCOCCn3ccnc3[N+](=O)[O-])c2)cc1OC (racemic) , IC50 read as 4 to 6 µM

###

pIC50 reference
System: Hep3B human hepatocellular carcinoma cells
Assay: Hypoxia targeting assay, 5-h exposure then 5 days growth, MTS
Type: cell-based
Settings: Homo sapiens, normoxic (21% O2), then 5 days growth, read-out: IC50 Normoxic (N)
Lab note — pIC50 values are minus log10 of concentrations in M.

Please review the entries below; each comes with its answer.
COMPOUND	pIC50
COc1ccc(C[C@H](C)[C@H](C)Cc2ccc(OC)c(OCCOCCOCCOCCn3cnc([N+](=O)[O-])c3)c2)cc1OC (racemic)	3.98
COc1ccc(C[C@H](C)[C@H](C)Cc2ccc(OC)c(OCCOCCOCCOCCn3ccnc3[N+](=O)[O-])c2)cc1OC (racemic)	4.22
COc1ccc(C[C@H](C)[C@H](C)Cc2ccc(OCCOCCOCCOCCn3ccnc3[N+](=O)[O-])c(OC)c2)cc1OC (racemic) [Compound 10d]	3.93

Here is the next item to consider.
Response field pIC50 (Hep3B human hepatocellular carcinoma cells) for item COc1ccc(C[C@H](C)[C@H](C)Cc2ccc(OCCOCCOCCOCCn3cnc([N+](=O)[O-])c3)c(OC)c2)cc1OC (racemic) [Compound 10c] : 3.85

###

Increment (solubility) reference
Assay: Determination of water solubility by UV absorbance of a saturated solution
Format: physicochemical
Details: PEG tether compound in comparison with the —CH2CH2— tether compound of the same pair (7c/7a, 7d/7b, 10c/10a, 10d/10b)
Enter your answer as a number in fold; do not include the unit.

Please review the entries below; each comes with its answer.
MOLECULE	ASSAY_VALUE
COc1ccc(C[C@H](C)[C@H](C)Cc2ccc(OCCn3ccnc3[N+](=O)[O-])c(OC)c2)cc1OC (racemic) [Compound 10b]	11.2
COc1ccc(C[C@H](C)[C@H](C)Cc2ccc(OC)c(OCCn3cnc([N+](=O)[O-])c3)c2)cc1OC (racemic) [Compound 7a]	10.5
COc1ccc(C[C@H](C)[C@H](C)Cc2ccc(OC)c(OCCn3ccnc3[N+](=O)[O-])c2)cc1OC (racemic) [Compound 7b]	8.1

Here is the next item to consider.
Notebook: COc1ccc(C[C@H](C)[C@H](C)Cc2ccc(OCCn3cnc([N+](=O)[O-])c3)c(OC)c2)cc1OC (racemic) [Compound 10a] , Increment (solubility) read as 6.5
